Tested on: Panel leukemia (Carcinoma cell lines)
methodNotes: In vitro photocytotoxicity is evaluated against human chronic myeloid leukemia cells grown in culture irradiated at 366 nM
Format: functional, cell-based
condition: light or radiation study
The following compounds are shown together with reported pIC50 values.
Scale for pIC50: -log10 of concentration given in mol/L; no unit attached.

Consider the worked cases shown below.
CN(C)CCNC(=O)c1nc(NC(=O)c2nc(NC(=O)CCCCOc3c4occc4cc4ccc(=O)oc34)cn2C)cn1C
5.35
CN(C)CCNC(=O)c1cc(NC(=O)c2cc(NC(=O)CCCCOc3ccc4ccc(=O)oc4c3)cn2C)cn1C
4.12
CN(C)CCNC(=O)c1cc(NC(=O)c2cc(NC(=O)CCCCOc3c4occc4cc4ccc(=O)oc34)cn2C)cn1C
6.52
CN(C)CCNC(=O)c1nc(NC(=O)c2nc(NC(=O)CCCCOc3ccc4ccc(=O)oc4c3)cn2C)cn1C
4.40

pIC50 of COc1c2occc2cc2ccc(=O)oc12 , assay on Panel leukemia (Carcinoma cell lines), is 4.00

* * *

System: Nucleic Acid
methodNotes: Apparent binding constant was determined by ethidium displacement assay in pol (dA-dT)
Format: nucleic-acid assay
In plain terms, low Binding constant, meaning strictly below 300000 M⁻¹, gives 1, and everything else gives -1.

COc1c2occc2cc2ccc(=O)oc12
1
CN(C)CCNC(=O)c1cc(NC(=O)c2cc(NC(=O)CCCCOc3c4occc4cc4ccc(=O)oc34)cn2C)cn1C
1

Prompt: Is 300000 M⁻¹ strictly greater than the compound's reported Binding constant? compound: CN(C)CCNC(=O)c1nc(NC(=O)c2nc(NC(=O)CCCCOc3c4occc4cc4ccc(=O)oc34)cn2C)cn1C
Response: 1

Prompt: Threshold test, Binding constant < 300000 M⁻¹: Cn1cc(NC(=O)c2cc(NC(=O)c3cc(NC=O)cn3C)cn2C)cc1C(=O)NCCC(=N)N
Response: -1

Prompt: Is the reported Binding constant for CN(C)CCNC(=O)c1nc(NC(=O)c2nc(NC(=O)CCCCOc3ccc4ccc(=O)oc4c3)cn2C)cn1C strictly below 300000 M⁻¹?
Response: 1

Prompt: I'd appreciate it if you could check whether CN(C)CCNC(=O)c1cc(NC(=O)c2cc(NC(=O)CCCCOc3ccc4ccc(=O)oc4c3)cn2C)cn1C has Binding constant smaller than 300000 M⁻¹.
Response: -1

* * *

Listed molecules paired with reported Binding constant
Tested on: Nucleic Acid
methodNotes: Apparent binding constant was determined by ethidium displacement assay in calf thymus
Assay type: nucleic-acid assay
condition: Bos taurus

For orientation, consider the following solved cases.
CN(C)CCNC(=O)c1nc(NC(=O)c2nc(NC(=O)CCCCOc3ccc4ccc(=O)oc4c3)cn2C)cn1C
100000 M⁻¹
CN(C)CCNC(=O)c1cc(NC(=O)c2cc(NC(=O)CCCCOc3c4occc4cc4ccc(=O)oc34)cn2C)cn1C
550000 M⁻¹
CN(C)CCNC(=O)c1nc(NC(=O)c2nc(NC(=O)CCCCOc3c4occc4cc4ccc(=O)oc34)cn2C)cn1C
40000 M⁻¹
COc1c2occc2cc2ccc(=O)oc12 [METHOXSALEN]
48000 M⁻¹
CN(C)CCNC(=O)c1cc(NC(=O)c2cc(NC(=O)CCCCOc3ccc4ccc(=O)oc4c3)cn2C)cn1C
170000 M⁻¹

Response field Binding constant (Nucleic Acid) for item Cn1cc(NC(=O)c2cc(NC(=O)c3cc(NC=O)cn3C)cn2C)cc1C(=O)NCCC(=N)N : 770000 M⁻¹

* * *

Test system: Nucleic Acid
methodNotes: Apparent binding constant was determined by ethidium displacement assay in coliphage T4 DNA
Format: nucleic-acid assay
Binding constant of 100000 M⁻¹ or higher: y. Under 100000 M⁻¹: n.

CN(C)CCNC(=O)c1nc(NC(=O)c2nc(NC(=O)CCCCOc3c4occc4cc4ccc(=O)oc34)cn2C)cn1C
y
CN(C)CCNC(=O)c1cc(NC(=O)c2cc(NC(=O)CCCCOc3c4occc4cc4ccc(=O)oc34)cn2C)cn1C
y
CN(C)CCNC(=O)c1cc(NC(=O)c2cc(NC(=O)CCCCOc3ccc4ccc(=O)oc4c3)cn2C)cn1C
y

Prompt: Is it the case that COc1c2occc2cc2ccc(=O)oc12 [METHOXSALEN] has Binding constant reaching or exceeding 100000 M⁻¹?
Response: n

Prompt: I'd appreciate it if you could say whether Cn1cc(NC(=O)c2cc(NC(=O)c3cc(NC=O)cn3C)cn2C)cc1C(=O)NCCC(=N)N has Binding constant at least equal to 100000 M⁻¹.
Response: y

* * *

Test system: Nucleic Acid
methodNotes: Apparent binding constant was determined by ethidium displacement assay in poly (dG-dC)
Type: nucleic-acid assay
readoutType: Binding constant (M⁻¹)
The reply should contain only the number, in M⁻¹.

COc1c2occc2cc2ccc(=O)oc12
25000
Cn1cc(NC(=O)c2cc(NC(=O)c3cc(NC=O)cn3C)cn2C)cc1C(=O)NCCC(=N)N
200000
CN(C)CCNC(=O)c1nc(NC(=O)c2nc(NC(=O)CCCCOc3ccc4ccc(=O)oc4c3)cn2C)cn1C
140000
CN(C)CCNC(=O)c1cc(NC(=O)c2cc(NC(=O)CCCCOc3c4occc4cc4ccc(=O)oc34)cn2C)cn1C
90000
CN(C)CCNC(=O)c1cc(NC(=O)c2cc(NC(=O)CCCCOc3ccc4ccc(=O)oc4c3)cn2C)cn1C
110000

Now look at this one.
Binding constant measured on CN(C)CCNC(=O)c1nc(NC(=O)c2nc(NC(=O)CCCCOc3c4occc4cc4ccc(=O)oc34)cn2C)cn1C = 210000
